Cited source: patent US20240122180A1

Test system: Phakopsora pachyrhizi (the causal agent of Asian soybean rust)
Experiment: Test A: preventive spray on soybean seedlings, visual disease rating (100 = 100% control; * 50 ppm, ** 10 ppm, *** 250 ppm)
Type: in vivo
Details: 50 ppm test suspension; 100 = 100% disease control, 0 = no control
Text: General protocol for preparing test suspensions for Tests A-E: the test compounds were first dissolved in acetone in an amount equal to 3% of the final volume and then suspended at the desired concentration (in ppm) in acetone and purified water (50/50 mix by volume) containing 250 ppm of the surfactant […] (polyhydric alcohol esters). The resulting test suspensions were then used in Tests A-E. The test solution was sprayed to the point of run-off on soybean seedlings. […]
PROPERTY_LABEL: Test A disease control rating (%)
Write down the numeric answer in % and omit the unit.

• CCO/C(=C\Oc1cccc(Cn2cc(C(=O)O)cn2)c1)C(F)(F)F = 100
• CCOC(=O)c1cnn(Cc2cccc(O/C=C(\OCC)C(F)(F)F)c2F)c1 = 100
• C[Si](C)(C)CCOc1nccc(Cc2ccc(OCC3(C(F)(F)F)OCCO3)cc2)n1 = 0
• CSc1nccc(Cc2ccc(OCC3(C(F)(F)F)OCCO3)cc2)n1 = 95
• CCO/C(=C\Oc1cccc(Cn2cc(C(=O)NC)cn2)c1)C(F)(F)F = 54

Reported Test A disease control rating of `CCOC(=O)c1cnn(Cc2c(F)c(F)c(O/C=C(\OCC)C(F)(F)F)c(F)c2F)c1` : 100

For `CCNC(=O)c1cnn(Cc2ccc(O/C=C(\OCC)C(F)(F)F)cc2)c1` the compound record lists Test A disease control rating as 77

Entry under test: `CCOC(=COc1ccc(Cc2ccnc(SC)n2)cc1)C(F)(F)F` . Its Test A disease control rating was 25

Noted for `Cc1ccc(OCC(O)(O)C(F)(F)F)cc1` : its Test A disease control rating reads 31
